These records show pIC50 for SNAP-hSPR (sepiapterin reductase, SPR) (Homo sapiens).
// pIC50 is dimensionless: -log10 of concentration (M)

The examples below pair each entry with its known result.
- COMPOUND: "Cc1c(C(=O)N2CCC(C#N)CC2)cnn1-c1nc2c(c(=O)[nH]1)CCC2 [Q-0464]"
  pIC50: 8.52
- COMPOUND: "Cc1c(C(=O)N2CCC(O)(c3ccccc3)CC2)cnn1-c1nc2c(c(=O)[nH]1)CCC2 [Q-0446]"
  pIC50: 8.15
- COMPOUND: "Cc1c(C(=O)N2CCN(S(=O)(=O)c3cccnc3)CC2)cnn1-c1nn2cccc2c(=O)[nH]1 [Q-1857]"
  pIC50: 9.00

So what's the measured pIC50 for this one? CCOC(=O)c1cn(-c2nn3cccc3c(=O)[nH]2)nn1 [Q-0839]
8.10

Would you mind doing Cc1c(C(=O)N2CCN(C3CC(F)(F)C3)CC2)cnn1-c1nn2cccc2c(=O)[nH]1 [Q-1169] as well?
9.00

Similarly, Cc1c(C(=O)N2CCN(S(=O)(=O)c3cccc(C(=O)O)c3)CC2)cnn1-c1nn2cccc2c(=O)[nH]1 [Q-1845] ?
8.70

Then what about the compound Cc1c(C(=O)N2CCN(C3CCC3)CC2)cnn1-c1nn2cccc2c(=O)[nH]1 [Q-0821] ?
9.00

// same read-out, input: CCn1ccc2c(=O)[nH]c(-n3ncc(C(=O)N4CC5(C4)CC(F)(F)C5)c3C)nc21 [Q-1313]
5.30

---

Parameter pIC50: see the listing below.
target: SNAP-hSPR (sepiapterin reductase, SPR) (Homo sapiens, UniProt P35270)
Sequence (P35270 whole entry): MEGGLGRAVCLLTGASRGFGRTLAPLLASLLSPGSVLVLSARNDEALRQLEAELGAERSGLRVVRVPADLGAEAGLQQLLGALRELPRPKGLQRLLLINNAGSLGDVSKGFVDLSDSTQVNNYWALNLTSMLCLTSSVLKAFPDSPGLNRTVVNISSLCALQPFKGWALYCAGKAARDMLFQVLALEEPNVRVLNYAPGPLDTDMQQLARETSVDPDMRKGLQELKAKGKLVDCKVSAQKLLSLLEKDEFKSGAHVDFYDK
pIC50 here is simply -log10 of the concentration when that concentration is written in mol/L.

- SMILES STR: "Cc1c(C(=O)N2CCC(c3nc(-c4ccccc4)co3)CC2)cnn1-c1nn2cccc2c(=O)[nH]1"
  RECORDED METRIC: "pIC50"
  ASSAY VALUE: 8.70

Requested read-out pIC50, target or system SNAP-hSPR (sepiapterin reductase, SPR) (Homo sapiens, UniProt P35270), entry Cc1c(C(=O)N2CCC(c3ccc(Cl)nc3)CC2)cnn1-c1nn2cccc2c(=O)[nH]1
9.00

What about this molecule? Cc1c(C(=O)N2CC[C@@H](N(C)C(=O)OC(C)(C)C)C2)cnn1-c1nn2cccc2c(=O)[nH]1
8.70

Next record, please: CCC1(C(F)(F)F)CCN(C(=O)c2cnn(-c3nn4cccc4c(=O)[nH]3)c2C)CC1
9.00

Another molecule: Cc1cc(-n2ncc(C(=O)N3CCC(C(F)(F)F)CC3)c2C)[nH]c(=O)c1
9.00

Let us now turn to Cc1c(C(=O)N2CCC(C(F)(F)F)CC2)nnn1-c1nn2cccc2c(=O)[nH]1
9.00

// query: CCS(=O)(=O)N1CCN(C(=O)c2cnn(-c3nn4cccc4c(=O)[nH]3)c2C)CC1
8.40

Another molecule to look at: Cc1c(C(=O)N2CCN(C)CC2)cnn1-c1nn2cccc2c(=O)[nH]1
8.40

---

biological target: SNAP-hSPR (sepiapterin reductase, SPR) (Homo sapiens, UniProt P35270); experiment: biochemical; assay type: binding; details: terbium labelled SNAP-hSPR / SSZ labelled SNAP-EGFP; read-out: hTR-FRET IC50
pIC50 values by entry
Entry type: numeric. Quantity: pIC50, the -log10 of concentration in molar units.

- MOLECULE: "Cc1c(C(=O)N2CCN(C(=O)OC(C)(C)C)CC2)cnn1-c1nc2c(c(=O)[nH]1)CCC2"
  pIC50: 8.52
- MOLECULE: "CCC(C#N)C1CCN(C(=O)c2cnn(-c3nc4c(c(=O)[nH]3)CCC4)c2C)CC1 (stereo not shown)"
  pIC50: 8.70
- MOLECULE: "Cc1c(C(=O)N2CCC3(CCCN3Cc3ccccc3)C2)cnn1-c1nc2ccsc2c(=O)[nH]1 (stereo not shown)"
  pIC50: 8.30
- MOLECULE: "Cc1c(C(=O)N2CCC(c3nc4ccccc4s3)CC2)cnn1-c1nn2cccc2c(=O)[nH]1"
  pIC50: 8.70
- MOLECULE: "Cc1c(C(=O)N2CCC(Cc3ccccc3)CC2)cnn1-c1nc2c(c(=O)[nH]1)CCC2"
  pIC50: 7.70

Please give the measured pIC50 for this molecule: Cc1c(C(=O)N2CCN(c3ccc(Cl)cc3)CC2)cnn1-c1nn2cccc2c(=O)[nH]1
8.70

Also need Cc1cc(C)c(S(=O)(=O)N2CCN(C(=O)c3cnn(-c4nn5cccc5c(=O)[nH]4)c3C)CC2)c(C)c1 , thanks.
9.00

Also need O=c1[nH]c(-c2cc(S(=O)(=O)N3CCC(C(F)(F)F)CC3)ccn2)nc2c1CCC2 , thanks.
6.52

---

molecular target: SNAP-hSPR (sepiapterin reductase, SPR) (Homo sapiens, UniProt P35270)
log10 IC50 for assorted compounds
Short version: log10 scale, IC50, nM.

The examples below pair each entry with its known result.
- COMPOUND: "Cc1c(C(=O)N2CCC3C(C2)C3C(F)(F)F)cnn1-c1nn2cccc2c(=O)[nH]1 (stereo not shown)"
  TARGET UNDER TEST: "SNAP-hSPR (sepiapterin reductase, SPR) (Homo sapiens, UniProt P35270)"
  RECORDED METRIC: "log10 IC50"
  ASSAY VALUE: 0.00
- COMPOUND: "Cc1c(C(=O)N(CCC#N)C2CCCCC2)cnn1-c1nc2c(c(=O)[nH]1)CCC2"
  TARGET UNDER TEST: "SNAP-hSPR (sepiapterin reductase, SPR) (Homo sapiens, UniProt P35270)"
  RECORDED METRIC: "log10 IC50"
  ASSAY VALUE: 0.48
- COMPOUND: "Cc1c(C(=O)N2CCN(S(=O)(=O)c3ccc4ccccc4c3)CC2)cnn1-c1nn2cccc2c(=O)[nH]1"
  TARGET UNDER TEST: "SNAP-hSPR (sepiapterin reductase, SPR) (Homo sapiens, UniProt P35270)"
  RECORDED METRIC: "log10 IC50"
  ASSAY VALUE: 0.48
- COMPOUND: "Cc1c(C(=O)N2CCC(C(O)(C(F)(F)F)C(F)(F)F)CC2)cnn1-c1nn2cccc2c(=O)[nH]1"
  TARGET UNDER TEST: "SNAP-hSPR (sepiapterin reductase, SPR) (Homo sapiens, UniProt P35270)"
  RECORDED METRIC: "log10 IC50"
  ASSAY VALUE: 0.00
- COMPOUND: "Cc1c(C(=O)N2CCc3ccccc3C2)cnn1-c1nc(C(C)(C)C)cc(=O)[nH]1"
  TARGET UNDER TEST: "SNAP-hSPR (sepiapterin reductase, SPR) (Homo sapiens, UniProt P35270)"
  RECORDED METRIC: "log10 IC50"
  ASSAY VALUE: 2.48

Now consider a different compound.
Which log10 IC50 value belongs to Cc1c(C(=O)N2CCC[C@H](C(F)(F)F)C2)cnn1-c1nc2c(c(=O)[nH]1)CCC2 (single isomer, unassigned) ?
0.70

---

target: SNAP-hSPR (sepiapterin reductase, SPR) (Homo sapiens, UniProt P35270)
# pIC50 per entry
// scale note: pIC50 = -log10(conc_M); give the bare number

- MOLECULE: "Cc1c(C(=O)N2CCC(C(O)C(F)(F)F)CC2)cnn1-c1nn2cccc2c(=O)[nH]1 (stereo not shown) [Q-1066]"
  pIC50: 9.00
- MOLECULE: "Cc1c(C(=O)N2CC3CN(C(=O)OC(C)(C)C)CC3C2)cnn1-c1nn2cccc2c(=O)[nH]1 (stereo not shown) [Q-0809]"
  pIC50: 8.22

// query pIC50 value for entry Cc1c(C(=O)N2CCN(c3ncc(-c4ccnc(F)c4)s3)CC2)cnn1-c1nn2cccc2c(=O)[nH]1 [Q-1231]
8.52

What do we get for Cc1c(C(=O)N2CCN(c3ncc(-c4ccnc(Cl)c4)s3)CC2)cnn1-c1nn2cccc2c(=O)[nH]1 [Q-1236] ?
8.22

---

// UniProt:P35270 IC50 records
Please give a number only; it is taken to be in nM.

These solved cases illustrate the format of a correct answer.
- COMPOUND: "CCC(C#N)C1=CCN(C(=O)c2cnn(-c3nc4c(c(=O)[nH]3)CCC4)c2C)CC1 (centres unmarked)"
  IC50 (nM): 1
- COMPOUND: "Cc1c(C(=O)N2CC(N3CCC(F)(F)C3)C2)cnn1-c1nc2[nH]ncc2c(=O)[nH]1"
  IC50 (nM): 1400
- COMPOUND: "Cc1c(C(=O)N2CCN(c3ncc(-c4ccc(Cl)cc4)o3)CC2)cnn1-c1nn2cccc2c(=O)[nH]1"
  IC50 (nM): 10
- COMPOUND: "CCC1(C#N)CCN(C(=O)c2cnn(-c3nc4c(c(=O)[nH]3)CCC4)c2C)CC1"
  IC50 (nM): 3
- COMPOUND: "Cc1c(C(=O)N2CCN(C(=O)OC(C)(C)C)C(C)C2)cnn1-c1nn2cccc2c(=O)[nH]1 (centres unmarked)"
  IC50 (nM): 1

What reported IC50 corresponds to CC1(C)CCN(C(=O)c2ccn(-c3nc4ccsc4c(=O)[nH]3)n2)C1 on UniProt:P35270?
20

Would you mind doing Cc1c(C(=O)N2CCC(C(C)(C)C#N)CC2)cnn1-c1nc2c(c(=O)[nH]1)CCC2 as well?
4

Moving on to the next compound: O=C(c1cnn(-c2nc3ccsc3c(=O)[nH]2)c1)N1CCC(C(F)(F)F)CC1
2

And then O=C(c1cnn(-c2nn3cccc3c(=O)[nH]2)c1)N1CCC(c2nc3ccccc3s2)CC1 , what is it?
40

Lookup Cc1c(C(=O)N2CCC(n3ccc(S(=O)(=O)C(F)(F)F)c3)CC2)cnn1-c1nn2cccc2c(=O)[nH]1
2

Proceed to Cc1cc(=O)[nH]c(-n2ncc(C(=O)N3CCc4ccc(C(F)(F)F)cc4C3)c2C)n1
20

Please answer likewise for CCC1(C#N)CC12CCN(C(=O)c1cnn(-c3nn4cccc4c(=O)[nH]3)c1C)CC2 (centres unmarked)
1

// next record Cc1c(C(=O)N2CCC3(CN(C(=O)OC(C)(C)C)C3)C2)cnn1-c1nn2cccc2c(=O)[nH]1
4

Try this compound next: Cc1nn(-c2nn3cccc3c(=O)[nH]2)cc1C(=O)N1CC(N2CCC(F)(F)C2)C1
20

Field entry: Cc1c(C(=O)N2CCc3ccccc3C2)cnn1-c1nc2cc[nH]c2c(=O)[nH]1
30

Follow-up item: Cc1c(C(=O)N2CC(c3cccc(F)n3)C2)cnn1-c1nn2cccc2c(=O)[nH]1
1

Next entry: Cc1c(C(=O)N2CCC(C#N)(c3ccccc3)CC2)cnn1-c1nc2c(c(=O)[nH]1)CCC2
6
